system: HMPV clinical isolate TN/1501/A1; assay: HMPV antiviral assay Method-B (clinical isolate TN/1501/A1 in LLC-MK2 cells, ATP-Lite readout); assay type: cell-based, Human metapneumovirus (HMPV); details: human metapneumovirus, LLC-MK2, 144 h, hMPV WT1501 (clinical isolate TN/1501/A1), 6 days
property_measured: EC50

[[record]]
given_smiles = "C[C@]1(C(N)=O)COc2c1cc([C@@](O)(CNC(=O)c1cc(F)c3nn(C4(F)CC4)cc3c1)C1CC1)nc2-c1ccc2c(c1)OC(F)(F)O2"
reading = "< 500 nM"

[[record]]
given_smiles = "COc1cc(C(=O)NC[C@](O)(c2cc3c(c(-c4ccc5ccccc5c4)n2)OC[C@]3(C)C(N)=O)C(F)(F)F)cc2cn(C3CC3)nc12"
reading = "> 500 nM"

[[record]]
given_smiles = "COc1cc(C(=O)NC[C@](O)(c2cc3c(c(-c4ccc(F)cc4Cl)n2)OC[C@]3(C)C(N)=O)C2CC2)cc2cn(C(F)F)nc12"
reading = "< 500 nM"

[[record]]
given_smiles = "COc1cc(C(=O)NC[C@](O)(c2cc3c(c(-c4ccc(F)c(F)c4)n2)OC[C@]3(C)C(N)=O)C(F)(F)F)cc2cn(C3CC3)nc12"
reading = "< 500 nM"

[[record]]
given_smiles = "Cc1cnc2c(OC(F)F)cc(C(=O)NC[C@](O)(c3cc4c(c(-c5ccc(F)cc5)n3)OC[C@]4(C)C(N)=O)C3CC3)cc2c1"
reading = "< 500 nM"

[[record]]
given_smiles = "C[C@]1(C(N)=O)COc2c1cc([C@@](O)(CNC(=O)c1cc(OC3CC3)c3nn(C(F)F)cc3c1)C1CC1)nc2-c1ccc(F)c(Cl)c1F"
reading = "< 500 nM"


---

tested on: HMPV clinical isolate TN/1501/A1; test: HMPV antiviral assay Method-B (clinical isolate TN/1501/A1 in LLC-MK2 cells, ATP-Lite readout); format: cell-based, Human metapneumovirus (HMPV); conditions: human metapneumovirus, LLC-MK2, 144 h, hMPV WT1501 (clinical isolate TN/1501/A1), 6 days
pEC50: −log10 of the molar value.
The compounds listed here are annotated with their pEC50.
property_measured: pEC50

[[record]]
compound = "COc1cc(C(=O)NC[C@](O)(c2cc3c(c(-c4c(F)cccc4Cl)n2)OC[C@]3(C)C(N)=O)C(F)(F)F)cc2cn(C3CC3)nc12 [Example 989]"
experimental_target = "HMPV clinical isolate TN/1501/A1"
reading = "> 6.30"

[[record]]
compound = "COc1cc(C(=O)NC[C@](O)(c2cc3c(c(-c4ccc(F)cc4)n2)OC[C@]3(C)C(N)=O)C2CC2)cc2cc(C3CC3)nnc12 [Example 763]"
experimental_target = "HMPV clinical isolate TN/1501/A1"
reading = "> 6.30"

[[record]]
compound = "COc1cc(C(=O)NC[C@@](O)(c2cc3c(c(C4=CCC(F)(F)CC4)n2)OC[C@]3(C)C(N)=O)C(F)(F)F)cc2cn(C3CC3)nc12 [Example 1229]"
experimental_target = "HMPV clinical isolate TN/1501/A1"
reading = "< 6.30"

[[record]]
compound = "Cc1nc2c(OC3CC3)cc(C(=O)NC[C@](O)(c3cc4c(c(-c5ccc(F)c(Cl)c5)n3)OC[C@]4(C)C(N)=O)C(F)(F)F)cc2cc1Cl [Example 886]"
experimental_target = "HMPV clinical isolate TN/1501/A1"
reading = "> 6.30"

[[record]]
compound = "COc1cc(-c2nc([C@@](O)(CNC(=O)c3cc(OC)c4nn(C5CC5)cc4c3)C(F)(F)F)cc3c2OC[C@]3(C)C(N)=O)cc2cn(C(F)F)nc12 [Example 942]"
experimental_target = "HMPV clinical isolate TN/1501/A1"
reading = "< 6.30"

[[record]]
compound = "COc1cc(C(=O)NC[C@](O)(c2cc3c(c(-c4ccc(F)cc4)n2)OC[C@@]3(CF)C(N)=O)C2CC2)cc2cn(C(F)F)nc12 [Example 1061]"
experimental_target = "HMPV clinical isolate TN/1501/A1"
reading = "< 6.30"

